# TGT: pooled human IgG (human IgG1, 2, 3 and 4)
MEASURED PARAMETER: Enzyme Activity Endpoint Assay: scIgG (ng/µL)

| PROTEIN | OBSERVED RESULT |
| --- | --- |
| PRT-467 (protein) MITSVWTKGVTPPTDFIKGEDVFHAPYKAGQGWYDITKAFDGGDDLLCGAATAGNMLHWWFDQNKDQIERYLKEHPEKQKINFNGEQMFDVKEAIDTKDSQTNSELFNYFKEKAFPYLSTKHLGVFPDHVLDMFINGYRLSLTNHGPTPVKRQEKDPRGGIFDAVFGRGDQTKLLTSRHDLKNKTLNEISQLIKQELTEGKALGLSHTYANVRINHVINLWGADFDAEGNLEAIYVTDSDSNASIGMKKYFVGVNSAGKVAISAKEIKEDNIGAQVLGLFTLSTGQKIWNKTNLEHHHHHH | 375 |
